system: SN12C; test: NCI tumour cell line growth inhibition, 48 h
Activity calls are given as the source filed them. No stated cut-off is given here; in the data, active = GI50 up to about 1.1 µM and inactive = higher.
outcome measure: GI50

INSERT INTO results (compound, tgt, outcome_measure, value_observed) VALUES
  ('Cn1c(CO)ccc1-c1ccc(-c2ccc(CO)[se]2)[se]1', 'SN12C', 'GI50', '10.6 µM (inactive)'),
  ('NC1=Nc2cc(C(F)(F)F)ccc2Sc2nc3ccccc3n21', 'SN12C', 'GI50', '57.5 µM (inactive)'),
  ('O=[N+]([O-])c1cc(F)ccc1S(=O)(=O)c1ccccc1', 'SN12C', 'GI50', '> 10 µM (inactive)'),
  ('C=C1C(=O)O[C@@]23C1CC[C@@H](C)C2CC[C@@]1(C)OC31 (stereo partly specified)', 'SN12C', 'GI50', '7.24 µM (inactive)'),
  ('Clc1c(C(Cl)(Cl)Cl)nsc1N1CCCCC1', 'SN12C', 'GI50', '28 µM (inactive)');

Q: Give recorded GI50. CC(C)N(C(=O)C12C3C4C1C1C2C3C41C(=O)N(C(C)C)C(C)C)C(C)C (stereo unspecified)
A: > 50 µM (inactive)

Q: Give recorded GI50. CCN(CC)C(=O)CCN1CC1
A: > 10 µM (inactive)

Q: Give recorded GI50. CCC1(c2ccc(OC)c(OC)c2)CCN2C(=O)C(O)CC21 (stereo unspecified)
A: > 100 µM (inactive)

Q: Give recorded GI50. O=C1CCc2ccc3c(c21)CC1(Cc2ccccc2C1)C3
A: 4.8 µM (inactive)

Q: Give recorded GI50. CC(C)(C)c1ccc(C(C)(C)C)c(N2C(=O)[C@@H]3[C@@H]4C=C[C@@H](C4)[C@]3(C)C2=O)c1
A: 20.1 µM (inactive)

Q: Give recorded GI50. Cc1ccc(-c2cs/c(=N\c3ccccc3)n2NC(=O)c2ccncc2)cc1
A: 45.2 µM (inactive)
